METRIC: melting point

>  <MOLECULE>
CCOc1cc2c(cc1OC(C)=O)CCC1C2CCC2(C)C(OC(C)=O)CCC12 (stereo not drawn)

>  <VALUE_MEASURED>
132 to 133 °C

$$$$
>  <MOLECULE>
CCCOc1ccc(/C=C/c2cc(OC)c(OC)c(OC)c2)cc1

>  <VALUE_MEASURED>
82 to 83 °C

$$$$
>  <MOLECULE>
COc1cc2nc(N3CCN(C)CC3)n3ncnc3c2cc1OC

>  <VALUE_MEASURED>
194 to 196 °C

$$$$
>  <MOLECULE>
COc1cc(-n2nc(C(F)(F)F)cc2-c2ccc(-c3ccco3)cc2)ccc1S(N)(=O)=O

>  <VALUE_MEASURED>
207 °C

$$$$
>  <MOLECULE>
O=S(=O)(Nc1nccnc1OCc1ccccn1)c1cccc(Cl)c1Cl

>  <VALUE_MEASURED>
167 to 168 °C

$$$$
>  <MOLECULE>
COc1ccc2nc(Cl)c(NN)nc2c1

>  <VALUE_MEASURED>
< 250 °C

$$$$
>  <MOLECULE>
CCc1cc(C(=O)O)ccc1O

>  <VALUE_MEASURED>
134 to 136 °C

$$$$
>  <MOLECULE>
CN(C)CCc1c(-c2ccc3ccccc3c2)[nH]c2ccccc12

>  <VALUE_MEASURED>
185 to 186 °C

$$$$
>  <MOLECULE>
COP(=O)(Cc1c(C)ccc2ccccc12)OC

>  <VALUE_MEASURED>
54 to 57 °C

$$$$
>  <MOLECULE>
Nc1ncc2c(n1)-c1ccc(-c3ccccc3)cc1C(c1ccc(Cl)c(Cl)c1)C2 (stereo not drawn)

>  <VALUE_MEASURED>
186 to 187 °C

$$$$
>  <MOLECULE>
Cn1nc(-c2ccc(C(F)(F)F)cc2)cc1C(=O)O

>  <VALUE_MEASURED>
230 to 232 °C

$$$$
>  <MOLECULE>
CCCCCCCCCCCCCCOc1cc(C(=O)Cl)ccc1OC

>  <VALUE_MEASURED>
60 to 61 °C

$$$$
>  <MOLECULE>
NC(=O)C1C=Cc2cc(Cl)ccc2N1C(=O)c1ccccc1 (stereo not drawn)

>  <VALUE_MEASURED>
230 to 234 °C

$$$$

----------
Collected melting point values appear next to each entry.
METRIC: melting point

>  <COMPOUND>
CCOC(=O)C(=O)Nc1cc(OC)cc(NC(=O)C(=O)OCC)n1

>  <METRIC>
melting point

>  <VALUE_MEASURED>
155 to 156 °C

$$$$
>  <COMPOUND>
CCOC(=O)C(C=O)Cc1ccn(Cc2ccccc2)c(=O)c1 (stereo unspecified)

>  <METRIC>
melting point

>  <VALUE_MEASURED>
140 to 143 °C

$$$$
>  <COMPOUND>
CC(C)Sc1c(C(=O)O)sc2cccc(Cl)c12

>  <METRIC>
melting point

>  <VALUE_MEASURED>
107 to 109 °C

$$$$
>  <COMPOUND>
COc1ccc(OCCOCn2cnc3ncnc(N)c32)cc1

>  <METRIC>
melting point

>  <VALUE_MEASURED>
129 to 130 °C

$$$$
>  <COMPOUND>
O=C(Nc1ccc(F)cc1)NN1CC=CCC1

>  <METRIC>
melting point

>  <VALUE_MEASURED>
156 to 157 °C

$$$$
>  <COMPOUND>
O=c1[nH]c2cc(Cl)ccc2c(=O)n1S(=O)(=O)c1cccc2cccnc12

>  <METRIC>
melting point

>  <VALUE_MEASURED>
284 to 286 °C

$$$$
>  <COMPOUND>
CC(=O)NCSC[C@H](NC(=O)OC(C)(C)C)C(=O)O

>  <METRIC>
melting point

>  <VALUE_MEASURED>
110 to 112 °C

$$$$
>  <COMPOUND>
COc1cc2c(cc1OC)CN(CCC1OCC(C)(C)c3cc(OC)c(OC)cc31)CC2 (stereo unspecified)

>  <METRIC>
melting point

>  <VALUE_MEASURED>
100 to 105 °C

$$$$
>  <COMPOUND>
CNC(=O)Nc1nc(C(C)c2ccc(-c3ccccc3)c(F)c2)cs1 (stereo unspecified)

>  <METRIC>
melting point

>  <VALUE_MEASURED>
208 to 209 °C

$$$$
>  <COMPOUND>
O=C(c1ccccc1)c1ccc(N2CCCC2=O)cc1

>  <METRIC>
melting point

>  <VALUE_MEASURED>
156 to 158 °C

$$$$
>  <COMPOUND>
COc1cccc(CCN2C(=O)c3c(F)c(F)c(F)c(F)c3C2(O)c2ccc(F)cc2)c1 (stereo unspecified)

>  <METRIC>
melting point

>  <VALUE_MEASURED>
161 °C

$$$$

----------
METRIC: melting point

>  <COMPOUND>
Cc1cc2ccccc2n1-c1ccc(OCc2ccccc2)c(F)c1

>  <VALUE_MEASURED>
70 to 71 °C

$$$$
>  <COMPOUND>
CC(CN1CCCC1)N1c2ccccc2Sc2ccc(C(=O)NCCC(C)(C)C)cc21 (racemic)

>  <VALUE_MEASURED>
138 °C

$$$$
>  <COMPOUND>
CCOP(=O)(NCC(=O)OCc1ccccc1)C1CC(c2ccccc2)=NO1 (configuration not stated)

>  <VALUE_MEASURED>
91 to 103 °C

$$$$
>  <COMPOUND>
Cc1cc(N)ccc1-c1ccc(-c2ccc(N)cc2C)s1

>  <VALUE_MEASURED>
86 to 88 °C

$$$$
>  <COMPOUND>
ON=C1c2ccccc2-c2c1c(N1CCN(c3ccccn3)CC1)nc1ccc(Br)cc21

>  <VALUE_MEASURED>
235 to 237 °C

$$$$
>  <COMPOUND>
CCC1(CCCCCl)C(=O)Nc2ccc(F)cc21 (configuration not stated)

>  <VALUE_MEASURED>
96 to 97 °C

$$$$
>  <COMPOUND>
CC(C)OC(=O)Nc1cccc2c1C(=O)C1(O)c3ccc(C(C)C)cc3OC21O (configuration not stated)

>  <VALUE_MEASURED>
200 to 202 °C

$$$$
>  <COMPOUND>
CCC(O)(c1ccc(OCCCN2CCN(C)CC2)cc1)c1cccc(C(F)(F)F)c1 (configuration not stated)

>  <VALUE_MEASURED>
129 to 130 °C

$$$$
>  <COMPOUND>
Cc1ccnc(Nc2nc(-c3ccc(OC(F)(F)F)cc3)cs2)c1

>  <VALUE_MEASURED>
275 to 282 °C

$$$$
>  <COMPOUND>
CCOC(=O)CN1C(=O)C(Br)CCc2ccccc21 (configuration not stated)

>  <VALUE_MEASURED>
114 to 116 °C

$$$$
>  <COMPOUND>
CC(C)Oc1cc(CCC(=O)NS(=O)(=O)C2CCCCC2)n(Cc2ccc(Cl)cc2Cl)n1

>  <VALUE_MEASURED>
137 to 138 °C

$$$$
>  <COMPOUND>
O=C(Nc1cccc2[nH]ccc12)c1ccccc1OCCCCl

>  <VALUE_MEASURED>
140 °C

$$$$
>  <COMPOUND>
CSc1c(C#N)c(=O)n(C)c(=O)n1C

>  <VALUE_MEASURED>
118 to 120 °C

$$$$
>  <COMPOUND>
COc1ccc2c3c(c(=O)oc2c1)CN(CCc1ccccc1)CC3

>  <VALUE_MEASURED>
135 to 136 °C

$$$$
>  <COMPOUND>
CN(C)C(=O)C1N=C(c2ccccc2)c2cc(Cl)ccc2NC1=O (configuration not stated)

>  <VALUE_MEASURED>
297 °C

$$$$
>  <COMPOUND>
O=C(Nc1ccc(N2CCOCC2)c(C(F)(F)F)c1)c1ccc(F)c(OCc2cncc3ccccc23)c1

>  <VALUE_MEASURED>
175 to 180 °C

$$$$
>  <COMPOUND>
CCCCC(=N)NC(=O)NC1CCCCC1

>  <VALUE_MEASURED>
146 to 148 °C

$$$$
>  <COMPOUND>
CCCOC(=O)c1ccc(C(=O)NNC(=O)c2ccc(C(=O)OCCC)cc2)cc1

>  <VALUE_MEASURED>
173 to 175 °C

$$$$
>  <COMPOUND>
CC(=O)Oc1ccc2c(C)cc(=O)oc2c1CC(Br)CBr (configuration not stated)

>  <VALUE_MEASURED>
145 to 148 °C

$$$$
>  <COMPOUND>
CCOC(=O)c1ccc(OC(F)F)cc1S(=O)(=O)NC(=O)Nc1nc(OC)cc(OC)n1

>  <VALUE_MEASURED>
146 to 149 °C

$$$$
>  <COMPOUND>
CCOC(=O)c1[nH]c(C)c(C(C)C)c1C

>  <VALUE_MEASURED>
105 to 108 °C

$$$$
>  <COMPOUND>
Cc1cc(NCCO)c(N)c([N+](=O)[O-])c1

>  <VALUE_MEASURED>
166 °C

$$$$
>  <COMPOUND>
Cc1ncsc1CNc1ccc(-n2nc(C(F)(F)F)cc2C2CC2)cc1

>  <VALUE_MEASURED>
59.2 to 61.2 °C

$$$$
>  <COMPOUND>
N#Cc1cccnc1N1CCN(CNC(=O)c2ccccc2)CC1

>  <VALUE_MEASURED>
133 to 136 °C

$$$$
>  <COMPOUND>
Nc1ncc(-c2ccc(=O)[nH]n2)c(-c2cccc(F)c2)n1

>  <VALUE_MEASURED>
249 °C

$$$$
>  <COMPOUND>
O=S(=O)(NCCCCOc1ccc(-c2ccncn2)cc1)c1ccc(Br)cc1

>  <VALUE_MEASURED>
131 to 133 °C

$$$$
>  <COMPOUND>
Cc1nnc(-c2ccc3occ(-c4ccc(S(C)(=O)=O)c(Cl)c4)c3c2)o1

>  <VALUE_MEASURED>
204 to 205 °C

$$$$
>  <COMPOUND>
COc1ccc2sc(C(=O)O)c(OCc3ccccc3)c2c1

>  <VALUE_MEASURED>
150 °C

$$$$
>  <COMPOUND>
Cc1nc(Nc2ccc(F)cc2)nc(O)c1C

>  <VALUE_MEASURED>
256 °C

$$$$
>  <COMPOUND>
BrCCOc1ccc(Cn2cccn2)cc1

>  <VALUE_MEASURED>
63 to 65 °C

$$$$
>  <COMPOUND>
C=C(C(=O)OC)N(Cc1ccccc1NC(=O)C(F)(F)F)S(=O)(=O)c1ccc(OC)cc1

>  <VALUE_MEASURED>
120 to 121 °C

$$$$
>  <COMPOUND>
CC(C)C(Oc1ccccc1)C(=O)OC1CC(O)C=C2C=CC(C)C(CCC3CC(O)CC(=O)O3)C21 (mixture of isomers)

>  <VALUE_MEASURED>
143 to 145 °C

$$$$
